- EXPERIMENTAL PROTOCOL: Cytotoxicity assay in MT-4 cells
- Assay type: cell-based, human
- COND: human, uninfected MT-4 cells, 5 days incubation; read-out: CC50
ASSAY READOUT: CC50 at 5 days (µM)
The response must be a number in µM with no trailing unit.

CC50 at 5 days reported for this molecule O=C(NCc1ccc(F)cc1F)c1cn2c(c(O)c1=O)C(=O)N1C[C@@H]2CCC[C@@H]1CF : 9.61

CC50 at 5 days reported for this molecule O=C(NCc1ccc(F)cc1F)c1cn2c(c(O)c1=O)C(=O)N1C[C@H]2CCc2cc(Cl)ccc21 : 7.2

CC50 at 5 days reported for this molecule O=C(NCc1ccc(F)cc1F)c1cn2c(c(O)c1=O)C(=O)N1CC[C@H](F)C[C@@H]2C1 : 16.1

CC50 at 5 days reported for this molecule O=C(NCc1ccc(F)c(Cl)c1F)c1cn2c(c(O)c1=O)C(=O)N1CCC=C(F)[C@H]2C1 (single isomer, unassigned) : 13.7

CC50 at 5 days reported for this molecule C[C@H]1[C@H](F)CC[C@H]2CN1C(=O)c1c(O)c(=O)c(C(=O)NCc3c(F)cc(F)cc3F)cn12 : 8.83

CC50 at 5 days reported for this molecule O=C(NCc1ccc(F)cc1F)c1cn2c(c(O)c1=O)C(=O)N1CC2CCc2ccccc21 (stereo not shown) : 17.7

Taken from patent US12227520B2.
